# EXPERIMENT SUMMARY: Evaluation of conversion rate to active form in buffer solution (Experimental Example 1)
# Format: physicochemical
# PROTOCOL CONDITIONS: pH5.5, 1 hr
Lab note - cut at 80% for Residual rate: label 1 if strictly below, label 0 if not.

Please review the following examples before continuing.
MOLECULE: CC(C)[C@H](N)C(=O)O[C@@H]1CN(C)CC[C@@H]1c1c(O)cc(O)c2c(=O)cc(-c3ccccc3Cl)oc12 [Comparative Example 10, reference compound]
LABEL CLASS: label 0

MOLECULE: CNC(=O)Oc1cc(O)c2c(=O)cc(-c3ccccc3Cl)oc2c1[C@H]1CCN(C)C[C@H]1O [Comparative Example 2, reference compound]
LABEL CLASS: label 1

MOLECULE: CCOC(=O)O[C@@H]1CN(C)CC[C@@H]1c1c(O)cc(O)c2c(=O)cc(-c3ccccc3Cl)oc12 [Comparative Example 3, reference compound]
LABEL CLASS: label 0

MOLECULE: CNC(=O)O[C@@H]1CN(C)CC[C@@H]1c1c(O)cc(O)c2c(=O)cc(-c3ccccc3Cl)oc12 [Comparative Example 5, reference compound]
LABEL CLASS: label 0

MOLECULE: C[C@H](N)C(=O)O[C@@H]1CN(C)CC[C@@H]1c1c(O)cc(O)c2c(=O)cc(-c3ccccc3Cl)oc12 [Comparative Example 7, reference compound]
LABEL CLASS: label 0

A record lists CNCCN(C)C(=O)Oc1cc(O)c2c(=O)cc(-c3ccccc3Cl)oc2c1[C@H]1CCN(C)C[C@H]1O [Comparative Example 14, reference compound] . Is its Residual rate below 80%?
label 1

A record lists CN1CC[C@H](c2c(OC(=O)N(C)CCN)cc(O)c3c(=O)cc(-c4ccccc4Cl)oc23)[C@H](O)C1 [Comparative Example 13, reference compound] . Is its Residual rate below 80%?
label 0

A record lists CCNC(=O)O[C@@H]1CN(C)CC[C@@H]1c1c(O)cc(O)c2c(=O)cc(-c3ccccc3Cl)oc12 [Comparative Example 4, reference compound] . Is its Residual rate below 80%?
label 0

* * *

# EXPERIMENT SUMMARY: Evaluation of conversion rate to active form in BALB/c mouse plasma (Experimental Example 3)
# Format: in vitro ADME
# PROTOCOL CONDITIONS: BALB/c, mouse, 60 min, 0.2 μmol/L
ENDPOINT NAME: Residual rate (%) of test compound
Answer format: numeric, % implied, no suffix.

COMPOUND: CN1CC[C@H](c2c(O)cc(O)c3c(=O)cc(-c4ccccc4Cl)oc23)[C@H](OC(=O)CN)C1 [Comparative Example 8, reference compound]
UNITS OF MEASURE: %
RECORDED MEASUREMENT: 14
--
COMPOUND: CCC(=O)O[C@@H]1CN(C)CC[C@@H]1c1c(O)cc(O)c2c(=O)cc(-c3ccccc3Cl)oc12 [Comparative Example 6]
UNITS OF MEASURE: %
RECORDED MEASUREMENT: 48

# context switch: different compound, same Residual rate (%) of test compound
Sample CN1CC[C@H](c2c(O)cc(O)c3c(=O)cc(-c4ccccc4Cl)oc23)[C@H](OC(=O)[C@@H](N)CO)C1 [Comparative Example 9, reference compound] — what was its Residual rate (%) of test compound?
70
